Known protein stability index of a selection of sequences
# System: Saccharomyces cerevisiae
# Assay details: protein stability index of tFT-peptide fusion (C-terminal peptide) (PSI (0-1 scale)); higher = more stable (slower turnover)
# Assay setup: genetic background: das1 deletion; temperature: 30 C
Please reply with the value in numeric form only.

{"Monomer sequence": "PRRSDLRPEFAE [VMA9 C-terminal 12 aa]", "Measured value": 0.672}
{"Monomer sequence": "TASEIQRTKSSI [YGR035C C-terminal 12 aa]", "Measured value": 0.711}
{"Monomer sequence": "LILHFVCLHFIN [OST2 C-terminal 12 aa]", "Measured value": 0.544}
{"Monomer sequence": "KQAIYTRAAASE [RPS25B C-terminal 12 aa]", "Measured value": 0.682}
{"Monomer sequence": "PMIKRQCEIIQF [TIP41 C-terminal 12 aa]", "Measured value": 0.645}

Which protein stability index reading was recorded for the sequence YVTYSGENTFGR [ATG8 C-terminal 12 aa] ?
0.703

Try this sequence too: KSPSITVNEFFH [RCN2 C-terminal 12 aa]
0.698

Try this sequence too: YGRGETPKHAIE [DPH1 C-terminal 12 aa]
0.692

Try this sequence too: SWLYNFDELLWQ [ALG8 C-terminal 12 aa]
0.761

* * *

Known protein stability index of a selection of sequences
# Tested on: Saccharomyces cerevisiae
# Assay details: protein stability index of tFT-peptide fusion (C-terminal peptide) (PSI (0-1 scale)); higher = more stable (slower turnover)
# Assay setup: genetic background: cdc34-1; temperature: 37 C
Please reply with the value in numeric form only.

Check out these entries, answers already filled in.
{"Monomer sequence": "LDRLTTWTLIVR", "Measurement target": "Saccharomyces cerevisiae", "protein stability index": 0.457}
{"Monomer sequence": "GLSVFFFVGFIF", "Measurement target": "Saccharomyces cerevisiae", "protein stability index": 0.38}
{"Monomer sequence": "FLLFFVLRLLPC", "Measurement target": "Saccharomyces cerevisiae", "protein stability index": 0.272}
{"Monomer sequence": "RFLACSIRYLVY", "Measurement target": "Saccharomyces cerevisiae", "protein stability index": 0.294}
{"Monomer sequence": "RILFSPSTFYLF", "Measurement target": "Saccharomyces cerevisiae", "protein stability index": 0.665}
{"Monomer sequence": "FFCSILLGIILL", "Measurement target": "Saccharomyces cerevisiae", "protein stability index": 0.385}

Which protein stability index reading was recorded for the sequence PDKRNHLIKLLN ?
0.537

* * *

Known protein stability index of a selection of sequences
# System: Saccharomyces cerevisiae
# Assay details: protein stability index of tFT-peptide fusion (C-terminal peptide) (PSI (0-1 scale)); higher = more stable (slower turnover)
# Assay setup: genetic background: das1 deletion; temperature: 30 C

Check out these entries, answers already filled in.
{"Monomer sequence": "TLCHLTLICVRE", "Readout name": "protein stability index", "Measured value": 0.226}
{"Monomer sequence": "ISVRKTFLIVLC", "Readout name": "protein stability index", "Measured value": 0.266}
{"Monomer sequence": "SPCSNFLECLSF", "Readout name": "protein stability index", "Measured value": 0.643}
{"Monomer sequence": "CLLLILCFLCVR", "Readout name": "protein stability index", "Measured value": 0.343}
{"Monomer sequence": "PRHERPPRDNGH", "Readout name": "protein stability index", "Measured value": 0.655}
{"Monomer sequence": "LLLFLHILRYVF", "Readout name": "protein stability index", "Measured value": 0.417}
{"Monomer sequence": "VVVLLLVVWFCL", "Readout name": "protein stability index", "Measured value": 0.316}
{"Monomer sequence": "PFYQSGGLVVVV", "Readout name": "protein stability index", "Measured value": 0.469}

Which protein stability index reading was recorded for the sequence FCMLCVVFLGSL ?
0.39

Try this sequence too: RPRRARLPNFLA
0.653

Try this sequence too: LPPSPPCQSPAL
0.672

Try this sequence too: KLVFLLCLNKVF
0.439

Try this sequence too: RSRNSEYILVYN
0.397

Try this sequence too: YWRNYLVLVCKF
0.592

Try this sequence too: VRVLAALVLCVV
0.217

Try this sequence too: IISPLRLLPLFF
0.61

Try this sequence too: VGASLVVIAIGV
0.377

Try this sequence too: ISATYSYIPVVG
0.346

Try this sequence too: FFAFLRFFIFYW
0.349

Try this sequence too: AFRFHTYFLLLC
0.153

Try this sequence too: YAFLWCVFYLSF
0.222

Try this sequence too: FILLFGFSHWVW
0.375
